# Subject of test: UniProtKB Q9UKK9
# Method: NUDT5 degradation by Western blot in HEK293 cells
# Format: cell-based
# Parameters: endogenous in cells; host or cells: HEK293 (also CRBN knock-out HEK293 for A13)
# Run conditions: 100 nM, 20 h
Result type: NUDT5 degradation at 100 nM, 20 h (%)

As a guide, the following entries are already answered.
molecule="Cn1c(=O)c2c(nc(N3CCN(C(=O)CCOCCOCCOCCOCCNc4cccc5c4C(=O)N(C4CCC(=O)NC4=O)C5=O)CC3)n2Cc2nnc(-c3ccc(Cl)c(Cl)c3)o2)n(C)c1=O (stereo not drawn) [Compound 130]" output_unit=% measured=81
molecule="Cn1c(=O)c2c(nc(N3CCN(CC4CCN(c5ccc6c(c5)C(=O)N(C5CCC(=O)NC5=O)C6=O)CC4)CC3)n2Cc2nnc(-c3ccc(Cl)c(Cl)c3)o2)n(C)c1=O (stereo not drawn) [Compound 070]" output_unit=% measured=39
molecule="Cn1c(=O)c2c(nc(N3CCN(CCC4CCN(c5ccc6c(c5)C(=O)N(C5CCC(=O)NC5=O)C6=O)CC4)CC3)n2Cc2nnc(-c3ccc(Cl)c(Cl)c3)o2)n(C)c1=O (stereo not drawn) [Compound 102]" output_unit=% measured=46
molecule="Cn1c(=O)c2c(nc(N3CCN(C(=O)N4CCC(CN5CCN(c6ccc7c(c6)C(=O)N(C6CCC(=O)NC6=O)C7=O)CC5)CC4)CC3)n2Cc2nnc(-c3ccc(Cl)c(Cl)c3)o2)n(C)c1=O (stereo not drawn) [dNUDT5]" output_unit=% measured=96

[A] Cn1c(=O)c2c(nc(N3CCN(C(=O)CCOCCOCCNc4cccc5c4C(=O)N(C4CCC(=O)NC4=O)C5=O)CC3)n2Cc2nnc(-c3ccc(Cl)c(Cl)c3)o2)n(C)c1=O (stereo not drawn) [Compound 068]
[B] Cn1c(=O)c2c(nc(N3CCN(C(=O)CCOCCOCCOCCNc4cccc5c4C(=O)N(C4CCC(=O)NC4=O)C5=O)CC3)n2Cc2nnc(-c3ccc(Cl)c(Cl)c3)o2)n(C)c1=O (stereo not drawn) [Compound 127]
Q) Return label of the item with the larger NUDT5 degradation at 100 nM, 20 h (%). Candidates: A , B . Provide the label of your selected option as the answer.
A) B
(B: 76%, A: 52%)
